# run.description: Plasma pharmacokinetics after single and multiple oral doses (non-compartmental analysis)
# Format: in vivo, human
# assay.context: human, plasma, po, 100 mg, patients with T2DM; 100 mg oral; day 1; read-out: AUC0-24h
endpoint.label: AUC(0-t) (ng·h/mL)
Your answer should be a plain number; it is taken to be in ng·h/mL.

I have this compound here, N[C@@H](CC(=O)N1CCn2c(nnc2C(F)(F)F)C1)Cc1cc(F)c(F)cc1F [Sitagliptin, sitagliptin, reference compound] , and I need its recorded AUC(0-t).
3340

###

# run.description: Plasma pharmacokinetics after single and multiple oral doses (non-compartmental analysis)
# Format: in vivo, human
# assay.context: human, plasma; patients with T2DM; 100 mg oral; day 1; median (range); read-out: Tmax
endpoint.label: Tmax (h)
Provide the reading as a plain figure in h.

Look at this molecule and give its reported Tmax. N[C@@H](CC(=O)N1CCn2c(nnc2C(F)(F)F)C1)Cc1cc(F)c(F)cc1F [Sitagliptin, sitagliptin, reference compound]
1.5

###

# run.description: Plasma pharmacokinetics after single and multiple oral doses (non-compartmental analysis)
# Type: in vivo, human
# assay.context: human, plasma; patients with T2DM; 100 mg oral once daily; day 14; read-out: Vz,ss/F
endpoint.label: Vd/F
Respond with a number, then the unit of measure.

Need Vd/F, item N[C@@H](CC(=O)N1CCn2c(nnc2C(F)(F)F)C1)Cc1cc(F)c(F)cc1F [Sitagliptin, sitagliptin, reference compound]
362 L

###

# run.description: Plasma pharmacokinetics after single and multiple oral doses (non-compartmental analysis)
# Type: in vivo, human
# assay.context: human, plasma, po, 100 mg, patients with T2DM; 100 mg oral once daily; day 14; read-out: AUC0-t
endpoint.label: AUC(0-t) (µg·h/mL)
// units = µg·h/mL; emit number, no label

Tell me the measured AUC(0-t) of N[C@@H](CC(=O)N1CCn2c(nnc2C(F)(F)F)C1)Cc1cc(F)c(F)cc1F [Sitagliptin, sitagliptin, reference compound] , please.
4.29

###

# run.description: Plasma pharmacokinetics after single and multiple oral doses (non-compartmental analysis)
# Format: in vivo, human
# assay.context: human, in vivo; patients with T2DM; 100 mg oral once daily; day 14
endpoint.label: half-life (h)
Write the value in h as a bare number.

Find the recorded half-life belonging to N[C@@H](CC(=O)N1CCn2c(nnc2C(F)(F)F)C1)Cc1cc(F)c(F)cc1F [Sitagliptin, sitagliptin, reference compound] and report it.
9.12

###

# run.description: Plasma pharmacokinetics after single and multiple oral doses (non-compartmental analysis)
# Type: in vivo, human
# assay.context: human, plasma; patients with T2DM; 100 mg oral once daily; day 14; read-out: Cmax,ss
endpoint.label: Cmax (ng/mL)
Only the number, expressed in ng/mL, is required.

Give the measured Cmax of N[C@@H](CC(=O)N1CCn2c(nnc2C(F)(F)F)C1)Cc1cc(F)c(F)cc1F [Sitagliptin, sitagliptin, reference compound] .
419
